Test system: HCT116
Protocol Notes: 9-point anti-proliferation assay, HCT116
Type: cell-based
Experimental Conditions: HCT116, 9-point anti-proliferation assay
pIC50: −log10 of the molar value.
Experimental Readout: pIC50

-- ask GET /values?readout=pIC50&item= CN(c1ccc2c(c1)OCCO2)c1nc(-c2ccsc2)ncc1F [Compound 25]
-- reply > 6.00
